Assay: Displacement of [3H]diprenorphine from human kappa/mu opioid chimera 3 receptor
# Condition met = Ki below 3 nM (exclusive); Condition not met = Ki at/above 3 nM

# item smiles, assigned label
rows = [
    ("COc1cc(CC(=O)N(C)[C@H](CN2CCCC2)c2ccccc2)c(S(=O)(=O)N2CCCC2)cc1OC", "Condition met"),
    ("COc1cc(CC(=O)N(C)[C@H](CN2CCCC2)c2ccccc2)c(S(=O)(=O)N(C)Cc2ccccc2)cc1OC", "Condition not met"),
    ("COc1cc(CC(=O)N(C)[C@H](CN2CC[C@H](O)C2)c2ccccc2)c(S(=O)(=O)N(C)C)cc1OC", "Condition not met"),
    ("COc1cc(CC(=O)N(C)[C@H](CN2CCCC2)c2ccccc2)c(S(=O)(=O)N2CCOCC2)cc1OC", "Condition met"),
]

Prompt: Below 3 nM on Ki? Entry "COc1cc(CC(=O)N(C)[C@H](CN2CCCC2)c2ccccc2)c(S(=O)(=O)N(C)C)cc1OC"
Completion: Condition not met

Prompt: Below 3 nM on Ki? Entry "CC[C@H](C)[C@H](NC(=O)[C@H](CCCNC(=N)N)NC(=O)[C@H](CCCNC(=N)N)NC(=O)[C@H](CC(C)C)NC(=O)[C@H](Cc1ccccc1)NC(=O)CNC(=O)CNC(=O)[C@@H](N)Cc1ccc(O)cc1)C(=O)N[C@@H](CCCNC(=N)N)C(=O)N1CCC[C@H]1C(=O)N[C@@H](CCCCN)C(=O)N[C@@H](CC(C)C)C(=O)N[C@@H](CCCCN)C(=O)N[C@@H](Cc1c[nH]c2ccccc12)C(=O)N[C@@H](CC(=O)O)C(=O)N[C@@H](CC(N)=O)C(=O)N[C@@H](CCC(N)=O)C(=O)O"
Completion: Condition met

Prompt: Below 3 nM on Ki? Entry "CN(C(=O)Cc1cc2c(cc1S(=O)(=O)N(C)C)OCO2)[C@H](CN1CCCC1)c1ccccc1"
Completion: Condition not met
